- Test system: Triticum aestivum
- method notes: Phytotoxicity against Triticum aestivum (wheat) under greenhouse conditions at 0.6 g/a at 1.5-leaf stage measured after 3 weeks by pot test
- Format: organism-based
- condition context: in vivo, 504 h
reported property: Activity

Check out these entries, answers already filled in.
{"molecule": "CC(Oc1ccc(Oc2ncc(Cl)cc2Cl)cc1)C(=O)NO (configuration not stated)", "assayed target": "Triticum aestivum", "Activity": "Non-toxic"}
{"molecule": "CONC(=O)C(C)Oc1ccc(Oc2ncc(Cl)cc2Cl)cc1 (configuration not stated)", "assayed target": "Triticum aestivum", "Activity": "Toxic"}
{"molecule": "CC(Oc1ccc(Oc2cnc3cc(Cl)ccc3n2)cc1)C(=O)NOCC(=O)O (configuration not stated)", "assayed target": "Triticum aestivum", "Activity": "Toxic"}
{"molecule": "CC(Oc1ccc(Oc2ccc(C(F)(F)F)cn2)cc1)C(=O)O (configuration not stated)", "assayed target": "Triticum aestivum", "Activity": "Toxic"}
{"molecule": "CCCNC(=O)CNC(=O)C(C)Oc1ccc(Oc2ncc(Cl)cc2Cl)cc1 (configuration not stated)", "assayed target": "Triticum aestivum", "Activity": "Non-toxic"}

Ask: Return Activity for the following molecule: COC(=O)C(C)Oc1ccc(Oc2ccc(Cl)cc2Cl)cc1 (configuration not stated)
Result: Non-toxic

Ask: Return Activity for the following molecule: CC(Oc1ccc(Oc2ncc(Cl)cc2Cl)cc1)C(=O)NOCC(=O)O (configuration not stated)
Result: Non-toxic

Ask: Return Activity for the following molecule: COC(=O)CNC(=O)C(C)Oc1ccc(Oc2ncc(Cl)cc2Cl)cc1 (configuration not stated)
Result: Non-toxic

Ask: Return Activity for the following molecule: CC(Oc1ccc(Oc2ncc(Cl)cc2Cl)cc1)C(N)=O (configuration not stated)
Result: Non-toxic

Ask: Return Activity for the following molecule: CC(Oc1ccc(Oc2ncc(Cl)cc2Cl)cc1)C(=O)O (configuration not stated)
Result: Toxic

Ask: Return Activity for the following molecule: CC(Oc1ccc(Oc2ccc(C(F)(F)F)cn2)cc1)C(=O)NOCC(=O)O (configuration not stated)
Result: Toxic

Ask: Return Activity for the following molecule: CC(Oc1ccc(Oc2ncc(C(F)(F)F)cc2Cl)cc1)C(=O)O (configuration not stated)
Result: Toxic

Ask: Return Activity for the following molecule: CC(Oc1ccc(Oc2cnc3cc(Cl)ccc3n2)cc1)C(=O)O (configuration not stated)
Result: Toxic

Ask: Return Activity for the following molecule: CCNC(=O)CNC(=O)C(C)Oc1ccc(Oc2ncc(Cl)cc2Cl)cc1 (configuration not stated)
Result: Non-toxic

Ask: Return Activity for the following molecule: CNC(=O)CNC(=O)C(C)Oc1ccc(Oc2ncc(Cl)cc2Cl)cc1 (configuration not stated)
Result: Non-toxic

Ask: Return Activity for the following molecule: CC(Oc1ccc(Oc2ncc(Cl)cc2Cl)cc1)C(=O)NCC(N)=O (configuration not stated)
Result: Non-toxic

Ask: Return Activity for the following molecule: CCCCOC(=O)CNC(=O)C(C)Oc1ccc(Oc2ncc(Cl)cc2Cl)cc1 (configuration not stated)
Result: Non-toxic

###

- Test system: Triticum aestivum
- method notes: Phytotoxicity against Triticum aestivum (wheat) under greenhouse conditions at 0.3 g/a at 1.5-leaf stage measured after 3 weeks by pot test
- Format: organism-based
- condition context: in vivo, 504 h
reported property: Activity

Check out these entries, answers already filled in.
{"molecule": "CC(Oc1ccc(Oc2ncc(Cl)cc2Cl)cc1)C(=O)NCCC(=O)O (stereo unspecified)", "test result": "Non-toxic"}
{"molecule": "CC(Oc1ccc(Oc2ncc(Cl)cc2Cl)cc1)C(=O)NO (stereo unspecified)", "test result": "Non-toxic"}
{"molecule": "CC(Oc1ccc(Oc2ncc(Cl)cc2Cl)cc1)C(=O)O (stereo unspecified)", "test result": "Non-toxic"}
{"molecule": "CC(Oc1ccc(Oc2ncc(Cl)cc2Cl)cc1)C(=O)N(C)OCC(=O)O (stereo unspecified)", "test result": "Non-toxic"}
{"molecule": "CCOC(=O)CNC(=O)C(C)Oc1ccc(Oc2ncc(Cl)cc2Cl)cc1 (stereo unspecified)", "test result": "Non-toxic"}

With those in mind, consider the next molecule.
Ask: Report value: Activity, system: Triticum aestivum, molecule: CC(Oc1ccc(Oc2ncc(Cl)cc2Cl)cc1)C(=O)NN (stereo unspecified)
Result: Non-toxic

###

- Test system: Avena fatua
- method notes: Post-emergence herbicidal activity against Avena fatua under greenhouse conditions at 2.5 g/a at 1.5-leaf stage measured after 3 weeks by pot test
- Format: functional, organism-based
The source made the active and inactive calls. The rule behind the calls is not given here.
Choose one outcome from this list and give only that: 1.0 for active, 0.0 for inactive

{"molecule": "CNC(=O)C(C)Oc1ccc(Oc2ncc(Cl)cc2Cl)cc1 (stereo not drawn)", "assayed target": "Avena fatua", "assigned class": 0.0}
{"molecule": "CC(Oc1ccc(Oc2ncc(C(F)(F)F)cc2Cl)cc1)C(=O)NOCC(=O)O (stereo not drawn)", "assayed target": "Avena fatua", "assigned class": 1.0}
{"molecule": "COC(=O)CNC(=O)C(C)Oc1ccc(Oc2ncc(Cl)cc2Cl)cc1 (stereo not drawn)", "assayed target": "Avena fatua", "assigned class": 1.0}
{"molecule": "CC(Oc1ccc(Oc2ncc(Cl)cc2Cl)cc1)C(=O)N(C)OCC(=O)O (stereo not drawn)", "assayed target": "Avena fatua", "assigned class": 1.0}
{"molecule": "CC(Oc1ccc(Oc2ncc(C(F)(F)F)cc2Cl)cc1)C(=O)O (stereo not drawn) [HALOXYFOP]", "assayed target": "Avena fatua", "assigned class": 1.0}
{"molecule": "CC(Oc1ccc(Oc2ncc(Cl)cc2Cl)cc1)C(=O)NOCC(=O)O (stereo not drawn)", "assayed target": "Avena fatua", "assigned class": 1.0}

Ask: Identify the outcome logged in this assay for the molecule shown: CC(Oc1ccc(Oc2ncc(Cl)cc2Cl)cc1)C(=O)NN (stereo not drawn)
Result: 0.0

Ask: Identify the outcome logged in this assay for the molecule shown: CC(Oc1ccc(Oc2ncc(Cl)cc2Cl)cc1)C(=O)NO (stereo not drawn)
Result: 1.0

###

- System: Triticum aestivum
- method notes: Phytotoxicity against Triticum aestivum (wheat) under greenhouse conditions at 0.6 g/a at 1.5-leaf stage measured after 3 weeks by pot test
- Format: organism-based
- condition context: in vivo, 504 h
reported property: Activity

{"compound": "O=C(O)CONC(=O)COc1ccc(Oc2ncc(Cl)cc2Cl)cc1", "assayed target": "Triticum aestivum", "test result": "Non-toxic"}
{"compound": "COC(=O)C(C)Oc1ccc(Oc2ncc(Cl)cc2Cl)cc1 (stereo unspecified)", "assayed target": "Triticum aestivum", "test result": "Toxic"}
{"compound": "CCCCNC(=O)CNC(=O)C(C)Oc1ccc(Oc2ncc(Cl)cc2Cl)cc1 (stereo unspecified)", "assayed target": "Triticum aestivum", "test result": "Non-toxic"}
{"compound": "CCCOC(=O)CNC(=O)C(C)Oc1ccc(Oc2ncc(Cl)cc2Cl)cc1 (stereo unspecified)", "assayed target": "Triticum aestivum", "test result": "Non-toxic"}
{"compound": "CCOC(=O)C(C)Oc1ccc(Oc2ncc(Cl)cc2Cl)cc1 (stereo unspecified)", "assayed target": "Triticum aestivum", "test result": "Toxic"}

Ask: Return Activity for the following compound: CCOC(=O)CNC(=O)C(C)Oc1ccc(Oc2ncc(Cl)cc2Cl)cc1 (stereo unspecified)
Result: Non-toxic

Ask: Return Activity for the following compound: CC(Oc1ccc(Oc2ncc(C(F)(F)F)cc2Cl)cc1)C(=O)NOCC(=O)O (stereo unspecified)
Result: Toxic

Ask: Return Activity for the following compound: CC(Oc1ccc(Oc2ncc(Cl)cc2Cl)cc1)C(=O)N(C)OCC(=O)O (stereo unspecified)
Result: Non-toxic

Ask: Return Activity for the following compound: CC(Oc1ccc(Oc2ncc(Cl)cc2Cl)cc1)C(=O)NN (stereo unspecified)
Result: Non-toxic

Ask: Return Activity for the following compound: CNC(=O)C(C)Oc1ccc(Oc2ncc(Cl)cc2Cl)cc1 (stereo unspecified)
Result: Non-toxic

Ask: Return Activity for the following compound: CC(Oc1ccc(Oc2ncc(Cl)cc2Cl)cc1)C(=O)NCCC(=O)O (stereo unspecified)
Result: Non-toxic

###

- Test system: Triticum aestivum
- method notes: Phytotoxicity against Triticum aestivum (wheat) under greenhouse conditions at 0.3 g/a at 1.5-leaf stage measured after 3 weeks by pot test
- Format: organism-based
- condition context: in vivo, 504 h
reported property: Activity

Check out these entries, answers already filled in.
{"molecule": "CNC(=O)CNC(=O)C(C)Oc1ccc(Oc2ncc(Cl)cc2Cl)cc1 (stereo not given)", "test result": "Non-toxic"}
{"molecule": "CC(Oc1ccc(Oc2ccc(C(F)(F)F)cn2)cc1)C(=O)O (stereo not given) [FLUAZIFOP]", "test result": "Toxic"}
{"molecule": "CCCNC(=O)CNC(=O)C(C)Oc1ccc(Oc2ncc(Cl)cc2Cl)cc1 (stereo not given)", "test result": "Non-toxic"}
{"molecule": "CCNC(=O)CNC(=O)C(C)Oc1ccc(Oc2ncc(Cl)cc2Cl)cc1 (stereo not given)", "test result": "Non-toxic"}
{"molecule": "CC(Oc1ccc(Oc2ncc(C(F)(F)F)cc2Cl)cc1)C(=O)O (stereo not given) [HALOXYFOP]", "test result": "Toxic"}

Ask: Return Activity for the following molecule: CCCCOC(=O)CNC(=O)C(C)Oc1ccc(Oc2ncc(Cl)cc2Cl)cc1 (stereo not given)
Result: Non-toxic

Ask: Return Activity for the following molecule: CCCCNC(=O)CNC(=O)C(C)Oc1ccc(Oc2ncc(Cl)cc2Cl)cc1 (stereo not given)
Result: Non-toxic

Ask: Return Activity for the following molecule: COC(=O)C(C)Oc1ccc(Oc2ncc(Cl)cc2Cl)cc1 (stereo not given)
Result: Toxic

Ask: Return Activity for the following molecule: CC(Oc1ccc(Oc2cnc3cc(Cl)ccc3n2)cc1)C(=O)NOCC(=O)O (stereo not given)
Result: Toxic

Ask: Return Activity for the following molecule: O=C(O)CONC(=O)COc1ccc(Oc2ncc(Cl)cc2Cl)cc1
Result: Non-toxic

Ask: Return Activity for the following molecule: CONC(=O)C(C)Oc1ccc(Oc2ncc(Cl)cc2Cl)cc1 (stereo not given)
Result: Non-toxic

Ask: Return Activity for the following molecule: CC(Oc1ccc(Oc2ccc(C(F)(F)F)cn2)cc1)C(=O)NOCC(=O)O (stereo not given)
Result: Toxic

Ask: Return Activity for the following molecule: COC(=O)CNC(=O)C(C)Oc1ccc(Oc2ncc(Cl)cc2Cl)cc1 (stereo not given)
Result: Non-toxic

Ask: Return Activity for the following molecule: CC(Oc1ccc(Oc2ncc(Cl)cc2Cl)cc1)C(N)=O (stereo not given)
Result: Non-toxic

Ask: Return Activity for the following molecule: CC(Oc1ccc(Oc2ncc(Cl)cc2Cl)cc1)C(=O)NOCC(=O)O (stereo not given)
Result: Non-toxic
